- System under test: T1, LA peptide
- T1 construct: The peptide was coated on the Octet sensor; also called peptide with N-terminal leucine and penultimate alanine
- Method notes: BLI (Octet), peptide on sensor, purified protein in solution
Observed property: Octet response after 200 sec association (nm)

PS797 (designed binder, Variant of PS557; also called N41D, V72M, Q75L) MPTAASATESAIEDTPAPARPEVDGRTKPKRQPRYHVVLWDDDDHTYQYVVVMLQSLFGHPPERGYRLAKEMDTLGRVIVLTTTREHAELKRDQIHAFGYDRLLARSKGSMKASIEAEE | 12
PS830 (designed binder, Variant of PS557) MPTAASATESAIEDTPAPARPEVDGRTKPKRQPRYHVVLWDDDDHTYQYVVVMLQSLFGHPRKRGYRLAKEMDTLGRVIVLTTTREHAELKRDQIHAFGYDRLLARSKGSMKASIEAEE | 8.54
PS838 (designed binder, Variant of PS557; also called V72M, N41D, P62R) MPTAASATESAIEDTPAPARPEVDGRTKPKRQPRYHVVLWDDDDHTYQYVVVMLQSLFGHPRERGYRLAKEMDTQGRVIVLTTTREHAELKRDQIHAFGYDRLLARSKGSMKASIEAEE | 13.4
